system: 616215-338-R-J1-PDC complex spheroid growth, % test/control; experiment: Anticancer human tumor 616215-338-R-J1-PDC patient-derived colon adenocarcinoma cell line growth inhibition [Asc]; conditions: second compound 0.0316 µM; first compound 3.16 µM; hits give low values
For each of the compounds below, state its viability, T/C.

- Compound: "C=CC(=O)N1CCN(c2nc(=O)n(-c3c(C)ccnc3C(C)C)c3nc(-c4c(O)cccc4F)c(F)cc23)C(C)C1 (centres undefined) + CNC(C)C(=O)NC1CN(S(=O)(=O)c2cccc(S(=O)(=O)N3CCC4CCC(C(=O)NC(c5ccccc5)c5ccccc5)N4C(=O)C(NC(=O)C(C)NC)C3)c2)CCC2CCC(C(=O)NC(c3ccccc3)c3ccccc3)N2C1=O"
  Tested target: "616215-338-R-J1-PDC complex spheroid growth, % test/control"
  Result: "58.1%"
- Compound: "C=C(F)C(=O)N1CCN(c2nc(OCC3CCCN3C)nc3c2CCN(c2cccc4cccc(Cl)c24)C3)CC1CC#N (centres undefined) + CNC(C)C(=O)NC1CN(S(=O)(=O)c2cccc(S(=O)(=O)N3CCC4CCC(C(=O)NC(c5ccccc5)c5ccccc5)N4C(=O)C(NC(=O)C(C)NC)C3)c2)CCC2CCC(C(=O)NC(c3ccccc3)c3ccccc3)N2C1=O"
  Tested target: "616215-338-R-J1-PDC complex spheroid growth, % test/control"
  Result: "0.88%"
- Compound: "O=C(c1cc(Cc2n[nH]c(=O)c3ccccc23)ccc1F)N1CCN(C(=O)C2CC2)CC1 + CNC(C)C(=O)NC1CN(S(=O)(=O)c2cccc(S(=O)(=O)N3CCC4CCC(C(=O)NC(c5ccccc5)c5ccccc5)N4C(=O)C(NC(=O)C(C)NC)C3)c2)CCC2CCC(C(=O)NC(c3ccccc3)c3ccccc3)N2C1=O"
  Tested target: "616215-338-R-J1-PDC complex spheroid growth, % test/control"
  Result: "94.9%"

Consider now this further compound.
Task item: Name the reported viability, T/C value associated with the compound C#Cc1c(F)ccc2cc(O)cc(-c3ncc4c(N5CC6CCC(C5)N6)nc(OCC56CCCN5CC(F)C6)nc4c3F)c12 (centres undefined) + CNC(C)C(=O)NC1CN(S(=O)(=O)c2cccc(S(=O)(=O)N3CCC4CCC(C(=O)NC(c5ccccc5)c5ccccc5)N4C(=O)C(NC(=O)C(C)NC)C3)c2)CCC2CCC(C(=O)NC(c3ccccc3)c3ccccc3)N2C1=O
Reply: 57.1%

----------
system: 616215-338-R-J1-PDC complex spheroid growth, % test/control; assay: Anticancer human tumor 616215-338-R-J1-PDC cell line growth inhibition [Asc]; details: second compound 0.316 µM; first compound 0.316 µM; hits give low values;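 note: spheroids exposed to agents for seven days before readout; 100% = DMSO vehicle control viability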
Property name: viability, T/C (%)
Give bare numbers, in %.

Example cases with answers are listed next.
- Molecule: "O=C(c1cc(Cc2n[nH]c(=O)c3ccccc23)ccc1F)N1CCN(C(=O)C2CC2)CC1 + CNC(C)C(=O)NC1CN(S(=O)(=O)c2cccc(S(=O)(=O)N3CCC4CCC(C(=O)NC(c5ccccc5)c5ccccc5)N4C(=O)C(NC(=O)C(C)NC)C3)c2)CCC2CCC(C(=O)NC(c3ccccc3)c3ccccc3)N2C1=O"
  Number: 105
- Molecule: "C=CC(=O)N1CCN(c2nc(=O)n(-c3c(C)ccnc3C(C)C)c3nc(-c4c(O)cccc4F)c(F)cc23)C(C)C1 (configuration not stated) + CNC(C)C(=O)NC1CN(S(=O)(=O)c2cccc(S(=O)(=O)N3CCC4CCC(C(=O)NC(c5ccccc5)c5ccccc5)N4C(=O)C(NC(=O)C(C)NC)C3)c2)CCC2CCC(C(=O)NC(c3ccccc3)c3ccccc3)N2C1=O"
  Number: 104
- Molecule: "C#Cc1c(F)ccc2cc(O)cc(-c3ncc4c(N5CC6CCC(C5)N6)nc(OCC56CCCN5CC(F)C6)nc4c3F)c12 (configuration not stated) + CNC(C)C(=O)NC1CN(S(=O)(=O)c2cccc(S(=O)(=O)N3CCC4CCC(C(=O)NC(c5ccccc5)c5ccccc5)N4C(=O)C(NC(=O)C(C)NC)C3)c2)CCC2CCC(C(=O)NC(c3ccccc3)c3ccccc3)N2C1=O"
  Number: 109
- Molecule: "C=C(F)C(=O)N1CCN(c2nc(OCC3CCCN3C)nc3c2CCN(c2cccc4cccc(Cl)c24)C3)CC1CC#N (configuration not stated) + Cc1c(S(C)(=O)=O)c(-c2cc(F)cc(N3CCN(c4ccc(NS(=O)(=O)c5ccc(NC(CCN6CCC(C(=O)OCCCP(=O)(O)O)CC6)CSc6ccccc6)c(S(=O)(=O)C(F)(F)F)c5)cc4)CC3)c2)c(-c2ccc(Cl)cc2)n1C(C)C"
  Number: 85.6

Could you tell me viability, T/C for each of these molecules? They are listed below.
1. C=C(F)C(=O)N1CCN(c2nc(OCC3CCCN3C)nc3c2CCN(c2cccc4cccc(Cl)c24)C3)CC1CC#N (configuration not stated) + CNC(C)C(=O)NC1CN(S(=O)(=O)c2cccc(S(=O)(=O)N3CCC4CCC(C(=O)NC(c5ccccc5)c5ccccc5)N4C(=O)C(NC(=O)C(C)NC)C3)c2)CCC2CCC(C(=O)NC(c3ccccc3)c3ccccc3)N2C1=O
2. COc1c(OCCCN2CCOCC2)ccc2c3n(c(=NC(=O)c4cnc(N)nc4)nc12)CCN3 + Cc1c(S(C)(=O)=O)c(-c2cc(F)cc(N3CCN(c4ccc(NS(=O)(=O)c5ccc(NC(CCN6CCC(C(=O)OCCCP(=O)(O)O)CC6)CSc6ccccc6)c(S(=O)(=O)C(F)(F)F)c5)cc4)CC3)c2)c(-c2ccc(Cl)cc2)n1C(C)C
3. C#Cc1c(F)ccc2cc(O)cc(-c3ncc4c(N5CC6CCC(C5)N6)nc(OCC56CCCN5CC(F)C6)nc4c3F)c12 (configuration not stated) + Cc1c(S(C)(=O)=O)c(-c2cc(F)cc(N3CCN(c4ccc(NS(=O)(=O)c5ccc(NC(CCN6CCC(C(=O)OCCCP(=O)(O)O)CC6)CSc6ccccc6)c(S(=O)(=O)C(F)(F)F)c5)cc4)CC3)c2)c(-c2ccc(Cl)cc2)n1C(C)C

Reply:
1. 47.7
2. 22.2
3. 88.8

----------
For each of the molecules below, state its viability, T/C.
tested on: 616215-338-R-J1-PDC complex spheroid growth, % test/control; test: Anticancer human tumor 616215-338-R-J1-PDC cell line growth inhibition [Asc]; conditions: second compound 0.0949 µM; first compound 0.01 µM; hits give low values;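 note: spheroids exposed to agents for seven days before readout; 100% = DMSO vehicle control viability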
One number for each entry, in %.

- Molecule: "CNC(C)C(=O)NC1CN(S(=O)(=O)c2cccc(S(=O)(=O)N3CCC4CCC(C(=O)NC(c5ccccc5)c5ccccc5)N4C(=O)C(NC(=O)C(C)NC)C3)c2)CCC2CCC(C(=O)NC(c3ccccc3)c3ccccc3)N2C1=O (stereo unspecified) + CCN1C(C(=O)NC23CCC(C(=O)O)(CC2)CC3)C(c2cccc(Cl)c2F)C2(C(=O)Nc3cc(Cl)ccc32)C12CCCCC2"
  Unit: "%"
  Number: 91.4
- Molecule: "NC1CCC(NC2CC2c2ccccc2)CC1 (stereo unspecified) + CCN1C(C(=O)NC23CCC(C(=O)O)(CC2)CC3)C(c2cccc(Cl)c2F)C2(C(=O)Nc3cc(Cl)ccc32)C12CCCCC2"
  Unit: "%"
  Number: 91.7
- Molecule: "CCN1CCN(Cc2ccc(Nc3ncc(F)c(-c4cc(F)c5nc(C)n(C(C)C)c5c4)n3)nc2)CC1 + CCN1C(C(=O)NC23CCC(C(=O)O)(CC2)CC3)C(c2cccc(Cl)c2F)C2(C(=O)Nc3cc(Cl)ccc32)C12CCCCC2"
  Unit: "%"
  Number: 96

Could you tell me viability, T/C for each of these molecules? They are listed below.
1. O=C(c1ccc(F)c(F)c1Nc1ccc(I)cc1F)N1CC(O)([C@@H]2CCCCN2)C1 + CCN1C(C(=O)NC23CCC(C(=O)O)(CC2)CC3)C(c2cccc(Cl)c2F)C2(C(=O)Nc3cc(Cl)ccc32)C12CCCCC2
2. Cn1ncnc1[C@H]1c2n[nH]c(=O)c3cc(F)cc(c23)N[C@@H]1c1ccc(F)cc1 + CCN1C(C(=O)NC23CCC(C(=O)O)(CC2)CC3)C(c2cccc(Cl)c2F)C2(C(=O)Nc3cc(Cl)ccc32)C12CCCCC2
3. COc1c(OCCCN2CCOCC2)ccc2c3n(c(=NC(=O)c4cnc(N)nc4)nc12)CCN3 + CCN1C(C(=O)NC23CCC(C(=O)O)(CC2)CC3)C(c2cccc(Cl)c2F)C2(C(=O)Nc3cc(Cl)ccc32)C12CCCCC2

Reply:
[93.6, 85, 81.2]

----------
For each of the compounds below, state its viability, T/C.
tested on: 616215-338-R-J1-PDC complex spheroid growth, % test/control; experiment: Anticancer human tumor 616215-338-R-J1-PDC cell line growth inhibition [Asc]; conditions: second compound 1 µM; first compound 0.0316 µM; hits give low values;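 note: spheroids exposed to agents for seven days before readout; 100% = DMSO vehicle control viability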
Answers are plain numbers, in %.

Example cases with answers are listed next.
- Compound: "O=C(c1cc(Cc2n[nH]c(=O)c3ccccc23)ccc1F)N1CCN(C(=O)C2CC2)CC1 + Cc1c(S(C)(=O)=O)c(-c2cc(F)cc(N3CCN(c4ccc(NS(=O)(=O)c5ccc(NC(CCN6CCC(C(=O)OCCCP(=O)(O)O)CC6)CSc6ccccc6)c(S(=O)(=O)C(F)(F)F)c5)cc4)CC3)c2)c(-c2ccc(Cl)cc2)n1C(C)C"
  Unit: "%"
  viability, T/C: 72.7
- Compound: "NC1CCC(NC2CC2c2ccccc2)CC1 (stereo not drawn) + CNC(C)C(=O)NC1CN(S(=O)(=O)c2cccc(S(=O)(=O)N3CCC4CCC(C(=O)NC(c5ccccc5)c5ccccc5)N4C(=O)C(NC(=O)C(C)NC)C3)c2)CCC2CCC(C(=O)NC(c3ccccc3)c3ccccc3)N2C1=O"
  Unit: "%"
  viability, T/C: 98.5

Could you tell me viability, T/C for each of these compounds? They are listed below.
1. COc1c(OCCCN2CCOCC2)ccc2c3n(c(=NC(=O)c4cnc(N)nc4)nc12)CCN3 + Cc1c(S(C)(=O)=O)c(-c2cc(F)cc(N3CCN(c4ccc(NS(=O)(=O)c5ccc(NC(CCN6CCC(C(=O)OCCCP(=O)(O)O)CC6)CSc6ccccc6)c(S(=O)(=O)C(F)(F)F)c5)cc4)CC3)c2)c(-c2ccc(Cl)cc2)n1C(C)C
2. O=C(c1ccc(F)c(F)c1Nc1ccc(I)cc1F)N1CC(O)([C@@H]2CCCCN2)C1 + Cc1c(S(C)(=O)=O)c(-c2cc(F)cc(N3CCN(c4ccc(NS(=O)(=O)c5ccc(NC(CCN6CCC(C(=O)OCCCP(=O)(O)O)CC6)CSc6ccccc6)c(S(=O)(=O)C(F)(F)F)c5)cc4)CC3)c2)c(-c2ccc(Cl)cc2)n1C(C)C
3. C=C(F)C(=O)N1CCN(c2nc(OCC3CCCN3C)nc3c2CCN(c2cccc4cccc(Cl)c24)C3)CC1CC#N (stereo not drawn) + CNC(C)C(=O)NC1CN(S(=O)(=O)c2cccc(S(=O)(=O)N3CCC4CCC(C(=O)NC(c5ccccc5)c5ccccc5)N4C(=O)C(NC(=O)C(C)NC)C3)c2)CCC2CCC(C(=O)NC(c3ccccc3)c3ccccc3)N2C1=O
4. C#Cc1c(F)ccc2cc(O)cc(-c3ncc4c(N5CC6CCC(C5)N6)nc(OCC56CCCN5CC(F)C6)nc4c3F)c12 (stereo not drawn) + Cc1c(S(C)(=O)=O)c(-c2cc(F)cc(N3CCN(c4ccc(NS(=O)(=O)c5ccc(NC(CCN6CCC(C(=O)OCCCP(=O)(O)O)CC6)CSc6ccccc6)c(S(=O)(=O)C(F)(F)F)c5)cc4)CC3)c2)c(-c2ccc(Cl)cc2)n1C(C)C
5. Cn1ncnc1[C@H]1c2n[nH]c(=O)c3cc(F)cc(c23)N[C@@H]1c1ccc(F)cc1 + Cc1c(S(C)(=O)=O)c(-c2cc(F)cc(N3CCN(c4ccc(NS(=O)(=O)c5ccc(NC(CCN6CCC(C(=O)OCCCP(=O)(O)O)CC6)CSc6ccccc6)c(S(=O)(=O)C(F)(F)F)c5)cc4)CC3)c2)c(-c2ccc(Cl)cc2)n1C(C)C
6. C=CC(=O)N1CCN(c2nc(=O)n(-c3c(C)ccnc3C(C)C)c3nc(-c4c(O)cccc4F)c(F)cc23)C(C)C1 (stereo not drawn) + Cc1c(S(C)(=O)=O)c(-c2cc(F)cc(N3CCN(c4ccc(NS(=O)(=O)c5ccc(NC(CCN6CCC(C(=O)OCCCP(=O)(O)O)CC6)CSc6ccccc6)c(S(=O)(=O)C(F)(F)F)c5)cc4)CC3)c2)c(-c2ccc(Cl)cc2)n1C(C)C
7. O=C(c1ccc(F)c(F)c1Nc1ccc(I)cc1F)N1CC(O)([C@@H]2CCCCN2)C1 + CNC(C)C(=O)NC1CN(S(=O)(=O)c2cccc(S(=O)(=O)N3CCC4CCC(C(=O)NC(c5ccccc5)c5ccccc5)N4C(=O)C(NC(=O)C(C)NC)C3)c2)CCC2CCC(C(=O)NC(c3ccccc3)c3ccccc3)N2C1=O

Reply:
1. 78.6
2. 56
3. 60
4. 68.8
5. 42.7
6. 67.6
7. 32.9
